molecular target: human IL13 (human, UniProt P35225 35-146, biotinylated in the SPR assays (sites not given)); test: cell-based or functional assay
Sequence (P35225 other isoform, or with tags, fused parts or gaps limits assumed): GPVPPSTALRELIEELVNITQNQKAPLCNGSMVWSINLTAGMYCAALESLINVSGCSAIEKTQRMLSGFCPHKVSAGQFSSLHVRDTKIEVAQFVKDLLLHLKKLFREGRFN
STAT6 Phospho IC50 strictly under 5 pM means True; at 5 pM or over means False.

binder	class name
6G11 (designed binder, N-Cap-(AR)3-C-Cap) DLGKKLLEAARAGQDDEVRILMANGADVNAEDILGITPLHLAAHHGHLEIVEVLLKHGADVNANDFAGYTPLHLAAVYGHLEIVEVLLKYGADVNATDAWGETPLHLAAYTGHLEIVEVLLKHDADVNAQDKFGKTAFDISIDNGNEDLAEILQKLN	False
9E11 (designed binder, N-Cap-(AR)3-C-Cap) DLGKKLLEAARAGQDDEVRILMANGADVNASDIYGSTPLHLAARHGHLEIVEVLLKNGADVNANDMIGDTPLHLAAYHGHLEIVEVLLKHGADVNASDITGETPLHLAAHNGHLEIVEVLLKYGADVNAQDKFGKTAFDISIDNGNEDLAEILQKLN	True
5D12 (designed binder, N-Cap-(AR)3-C-Cap) DLGKKLLEAARAGQDDEVRILMANGADVNAVDDYGSTPLHLAARQGHLEIVEVLLKNGADVNADDFIGDTPLHLAAFKGHLEIVEVLLKNGADVNASDITGETPLHLAATAGHLEIVEVLLKHGADVNAQDKFGKTAFDISIDNGNEDLAEILQKLN	False
10A6 (designed binder, N-Cap-(AR)2-C-Cap, only 2 ARs) DLGKKLLEAARAGQDDEVRILMANGADVNAIDHFDSTPLHLAARHGHLEIVEVLLKNGADVNADDFLGDTPLHLAAYHGHLDIVEVLLKHGADVNAQDKFGKTAFDISIDNGNEDLAEILQKLN	False
7D7 (designed binder, N-Cap-(AR)3-C-Cap) DLGKKLLEAARAGQDDEVRILMANGADVNATDTYGSTPLHLAARHCHQEIVEVLLKHGADVNANDFIGDTPLHLAAWHGHLEIVEVLLKNGADVNAMDVTGETPLHLAAYHGHLDIVEVLLKNGADVNAQDKFGKTAFDISIDNGNEDLAEILQKLN	False
7D2 (designed binder, N-Cap-(AR)3-C-Cap) DLGKKLLEAARAGQDDEVRILMANGADVNAFDDFGSTPLHLAARSGHLEIVEVLLKHGADVNAHDMIGDTPLHLAAYHGHLEIVEVLLKYGADVNAKDTSGTTPLHLAADSGHLEIVEVLLKHGADVNAQDKFGKTAFDISIDNGNEDLAEILQKLN	True
5H7 (designed binder, N-Cap-(AR)3-C-Cap) DLGKKLLEAARAGQDDEVRILMANGADVNAADMYGTTPQHLAARTGHLEIVEVLLKYGADVNAADFLGDTPLHLAAYHGHLEIVEVLLKHGADVNASDITGETPLHLAAHLGHLEIVEVLLKYGADVNAQDKFGKTAFDISIDNGNEDLAEILQKLN	False
6D4 (designed binder, N-Cap-(AR)3-C-Cap) DLGKKLLEAARAGQDDEVRILMANGADVNAADDYGSTPLHLAARSGHLEIVEVLLKHGADVNANDFIGDTPLHLAAYNGHLEIVEVLLKNGADVNATDITGETPLHLAAERGHLEIVEVLLKNGADVNTQDKFGKTAFDISIDNGNEDLAEILQKLN	True
9F8 (designed binder, ankyrin repeat protein) DLGKKLLEAARAGQDDEVRILMANGADVNASDIFGSTPLHLAARHGHLEIVEVLLKYGADVNAMDFIGDTPLHLAAYRGHLEIVEVLLKYGVDVNADDHGDTPLHLAASMGHLEIVEVLLKNGADVNAQDKFGKTAFDISIDNGNEDLAEILQKLN	False
IL13 binding protein 6G9 (designed binder) DLGKKLLEAARAGQDDEVRILMANGADVNARDSYGSTPLHLAAREGHLEIVEVLLKYGADVNAKDMIGDTPLHLAAYRGHLEIVEVLLKNGADVNASDITGETPLHLAAQIGHLEIVEVLLKYGADVNAQDKFGKTAFDISIDNGNEDLAEILQKLN	False
7C6 (designed binder, N-Cap-(AR)3-C-Cap) DLGKKLLEAARAGQDDEVRILMANGADVNAMDKYGSTPLHLAARSGHLEIVEVLLKHGADVNATDFIGDTPLHLAAYHGHLEIVEVLLKHGADVNAEDITGETPLHLAAESGHLEIVEVLLKHGADVNAQDKFGKTAFDISIDNGNEDLAEILQKLN	True
5B9 (designed binder, N-Cap-(AR)3-C-Cap) DLGKKLLEAARAGQDDEVRILMANGADVNATDVFGSTPLHLAARHGHLEIVEVLLKHGADVNATDFIGDTPLHLAAYHGHLEIVEVLLKHGADVNAKNGETPLHLAAYHGHPDIVEVLLKHGADVNAQDKFGKTAFDISIDNGNEDLAEILQKLN	False
7G11 (designed binder, ankyrin repeat protein) DLGKKLLEAARAGQDDEVRILMANGADVNATDEFDSTPLHLAARHGHLEIVEVLLKYGADVNAADFIGDTPLHLAAYRGHLEIVEVLLKCGVDVNADDHGDTPLHLAASMGHLEIVEVLLKNGADVNAQDKFGKTAFDISIDNGNEDLAEILQKLN	True
